Listing of entries alongside the reported GI50.
- Test system: PC-3
- experiment: NCI tumour cell line growth inhibition, 48 h
Active and inactive are the calls of the source. Cut-off read from the data, not from the text of the source: active = GI50 up to about 1.1 µM and inactive = higher.

INSERT INTO results (structure_notation, assay_system, result) VALUES
  ('O=C1C=CC(=O)c2ccc(=O)ccc21', 'PC-3', '17.8 µM (inactive)');

Q: Consider the compound O=C(O)C1(C(=O)O)CC1(C(=O)O)C(=O)O and give its measured GI50.
Result: > 100 µM (inactive)

Q: Given Cc1ccc(/N=c2/oc3c(ccc4ccccc43)nc2Nc2ccc(C)cc2)cc1 , state its recorded GI50.
Result: > 100 µM (inactive)

Q: # input compound: CCOC(=O)c1cn2c(ccc3sc4ccccc4c(=O)c32)n1 ; wanted: its GI50
Result: > 100 µM (inactive)
